pKi: −log10 of the molar value.
Values of pKi for UniProtKB P29274, collected from a number of published sources:
# label = label 1 if pKi >= 6 else label 0

compound	assignedCategory
CCOc1cccc2cc(-c3ccc(Br)cc3)c(=O)oc12	label 0
O=C(COc1ccccc1)Nc1nc(-c2ccc(F)cc2)n[nH]1	label 0
COc1ccccc1-c1nc(N)nc2ccccc12	label 1
Nc1ccc(-n2nc3c(=O)[nH]c(-c4ccccc4)cn3c2=O)cc1	label 1
C=CCN(C)S(=O)(=O)c1ccc(NC(=O)Nc2ncnc3c2ncn3C2O[C@H](C(=O)NCC)C(O)C2O)cc1 (single isomer, unassigned)	label 0
CCNC(=O)[C@H]1O[C@@H](n2cnc3c(NNC(=O)c4ccc(Cl)cc4)ncnc32)[C@H](O)[C@@H]1O	label 0
COc1cc(-c2cc3c([nH]2)c(=O)n(C)c(=O)n3C)ccc1OCC(=O)Nc1ccc(C#N)cc1	label 1
C[C@H](Cc1ccccc1)Nc1ncnc2c1ncn2[C@@H]1O[C@H](CO)[C@@H](O)[C@@]1(C)O	label 0
